Target: Nuclear receptor subfamily 1 group I member 2 (Homo sapiens) (UniProt O75469)
Sequence (O75469 whole entry, looked up): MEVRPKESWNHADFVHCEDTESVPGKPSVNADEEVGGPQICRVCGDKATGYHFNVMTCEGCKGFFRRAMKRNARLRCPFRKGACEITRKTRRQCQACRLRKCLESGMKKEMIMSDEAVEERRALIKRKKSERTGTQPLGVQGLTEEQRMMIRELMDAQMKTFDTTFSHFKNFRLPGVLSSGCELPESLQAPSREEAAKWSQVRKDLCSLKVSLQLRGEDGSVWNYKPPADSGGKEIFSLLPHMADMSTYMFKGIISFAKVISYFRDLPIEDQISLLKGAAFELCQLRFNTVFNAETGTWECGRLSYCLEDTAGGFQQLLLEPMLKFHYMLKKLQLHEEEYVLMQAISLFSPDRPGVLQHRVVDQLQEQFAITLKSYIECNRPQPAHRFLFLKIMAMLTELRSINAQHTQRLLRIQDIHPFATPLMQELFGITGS
Assay: Human pregnane X receptor (PXR) small molecule agonists, qHTS assay (AID 1346982); further: nearly all actives have a fitted effect of over 35% in size
Details: PXR-Luc HepG2, CYP3A4 luciferase reporter, 24 h; series mostly up to 92.4 µM
Records with an inconclusive call do not appear. Calls of active or inactive are those of the source. The call rests on the fitted dose curve; in most records, active means well fitted activation curve with a large enough effect in the repeat runs; inconclusive means weak or mixed curves; inactive means no such curve, though single readings can be large or run the other way.
Pick from yes (1) = active, no (0) = inactive when you respond.

Look over these answered cases.
>  <Compound>
O=C(CCN1CCC(c2ccccc2)C1)c1ccc2c(c1)OCCO2 (stereo not drawn)

>  <Class>
yes (1)

$$$$
>  <Compound>
C1CCSC1

>  <Class>
no (0)

$$$$
>  <Compound>
Cc1cc(Br)ccc1NC(=O)CCl

>  <Class>
yes (1)

$$$$
>  <Compound>
Nc1cc([N+](=O)[O-])ccc1Cl

>  <Class>
no (0)

$$$$
>  <Compound>
C=C1CC[C@H]2O[C@]2(C)CC[C@@H]2[C@@H]1CC2(C)C

>  <Class>
no (0)

$$$$

Req: Any idea what this test logged for `CN[C@H]1CC[C@@H](c2ccc(Cl)c(Cl)c2)c2ccc(S(N)(=O)=O)cc21` ?
Resp: no (0)

Req: Any idea what this test logged for CC1CCC(C(C)(C)O)CC1 (stereo not drawn) ?
Resp: no (0)

Req: Any idea what this test logged for CC(Cc1ccc(O)c(O)c1)C(C)Cc1ccc(O)c(O)c1 (stereo not drawn) ?
Resp: yes (1)

---

Assay: qHTS assay to test for compound auto fluorescence at 460 nm (blue) in HEK293 cell free culture (AID 720681)
Conditions: cell-free medium, autofluorescence 405/460 nm (blue); series mostly up to 46 µM
Text: U.S. Tox21 Program National Center for Advancing Translational Sciences [NCATS] NIH Chemical Genomics Center [NCGC] U.S. Environmental Protection Agency [EPA] National Institutes of Environmental Health Sciences [NIEHS] National Toxicology Program [NTP] U.S. Food and Drug Administration [FDA] Tox21 Assay Overview: Compound auto fluorescence often interferes with screening of the compound library against various biological targets and signaling pathways. […] This assay includes the blue fluorescence data. […]
The source made the active and inactive calls. Calls come from the whole dose curve; as a rule, active = well fitted curve in the direction sought with a large enough effect in the repeat runs; inconclusive = weak or mixed curves; inactive = flat fitted curve, though single readings scatter.
Outcome measure: outcome

Example entries and their recorded answers appear below.
>  <Compound>
C=CC[N@@+]12CC[C@@]34c5ccccc5N5/C=C6/[C@H]7C[C@H]8[C@@]9(CC[N@@+]8(CC=C)C/C7=C/CO)c7ccccc7N(/C=C(/[C@@H](C[C@@H]31)/C(=C\CO)C2)[C@H]54)[C@@H]69

>  <outcome>
inactive

$$$$
>  <Compound>
O=C1CC[C@@H](C(=O)N[C@H]2C[C@@H]2c2ccccc2)N1

>  <outcome>
inactive

$$$$
>  <Compound>
CCCCCCCCCC(=O)NO

>  <outcome>
inactive

$$$$
>  <Compound>
CN=C(N)NCCC[C@H](N)C(=O)O

>  <outcome>
inactive

$$$$
>  <Compound>
Oc1ccc(Cl)cc1C1CCCC1

>  <outcome>
inactive

$$$$
>  <Compound>
O=C(O)COc1ccc(C(=O)c2cccs2)c(Cl)c1Cl

>  <outcome>
inactive

$$$$

Lab book: outcome of `FC(F)(F)COCC(F)(F)F` noted as inactive

Lab book: outcome of `CC(=O)[C@]1(O)Cc2c(O)c3c(c(O)c2[C@@H](O[C@H]2C[C@H](N)[C@H](O)[C@H](C)O2)C1)C(=O)c1ccccc1C3=O` noted as inactive

Lab book: outcome of O=C1CCC(c2ccccc2)(C2CCN(Cc3ccccc3)CC2)C(=O)N1 (stereo unspecified) noted as inactive

Lab book: outcome of `NCC[C@H](O)C(=O)N[C@@H]1C[C@H](N)[C@@H](O[C@H]2O[C@H](CN)CC[C@H]2N)[C@H](O)[C@H]1O[C@H]1O[C@H](CO)[C@@H](O)[C@H](N)[C@H]1O` noted as inactive

Lab book: outcome of CC1CCCCN1CCCOC(=O)c1ccccc1 (stereo unspecified) noted as inactive

Lab book: outcome of `O=C1c2ccccc2C(=O)C1c1ccc(F)cc1` noted as inactive

Lab book: outcome of CC1CCCC(C)N1NC(=O)c1ccc(Cl)c(S(N)(=O)=O)c1 (stereo unspecified) noted as inactive

Lab book: outcome of `NC(=S)NS(=O)(=O)c1ccc(N)cc1` noted as inactive

Lab book: outcome of `C[C@]12O[C@H](C[C@]1(O)CO)n1c3ccccc3c3c4c(c5c6ccccc6n2c5c31)CNC4=O` noted as inactive

Lab book: outcome of CC1(C)S[C@@H]2[C@H](N3C(=O)C(c4ccccc4)NC3(C)C)C(=O)N2[C@H]1C(=O)O (stereo partly specified) noted as inactive

Lab book: outcome of `CC(=NCc1ccccc1)c1ccccc1O` noted as inactive

Lab book: outcome of C=CC1=C(C(=O)O)N2C(=O)[C@@H](NC(=O)/C(=N\O)c3csc(N)n3)[C@H]2SC1 (stereo in doubt) noted as inactive

Lab book: outcome of `CC(=O)Nc1ccc(OC(C)=O)cc1` noted as inactive

Lab book: outcome of `CC[C@H](C)C(=O)O[C@H]1CCC=C2C=C[C@H](C)[C@H](CC[C@@H]3C[C@@H](O)CC(=O)O3)[C@H]21` noted as inactive

Lab book: outcome of `O=C(CCCCCCCCc1cccnc1)N1CCC(C=C(c2ccccc2)c2ccccc2)CC1` noted as inactive
